Molecular target: EGFR WT (Ba/F3 cells) (Homo sapiens)
Sequence (P00533 25-1210): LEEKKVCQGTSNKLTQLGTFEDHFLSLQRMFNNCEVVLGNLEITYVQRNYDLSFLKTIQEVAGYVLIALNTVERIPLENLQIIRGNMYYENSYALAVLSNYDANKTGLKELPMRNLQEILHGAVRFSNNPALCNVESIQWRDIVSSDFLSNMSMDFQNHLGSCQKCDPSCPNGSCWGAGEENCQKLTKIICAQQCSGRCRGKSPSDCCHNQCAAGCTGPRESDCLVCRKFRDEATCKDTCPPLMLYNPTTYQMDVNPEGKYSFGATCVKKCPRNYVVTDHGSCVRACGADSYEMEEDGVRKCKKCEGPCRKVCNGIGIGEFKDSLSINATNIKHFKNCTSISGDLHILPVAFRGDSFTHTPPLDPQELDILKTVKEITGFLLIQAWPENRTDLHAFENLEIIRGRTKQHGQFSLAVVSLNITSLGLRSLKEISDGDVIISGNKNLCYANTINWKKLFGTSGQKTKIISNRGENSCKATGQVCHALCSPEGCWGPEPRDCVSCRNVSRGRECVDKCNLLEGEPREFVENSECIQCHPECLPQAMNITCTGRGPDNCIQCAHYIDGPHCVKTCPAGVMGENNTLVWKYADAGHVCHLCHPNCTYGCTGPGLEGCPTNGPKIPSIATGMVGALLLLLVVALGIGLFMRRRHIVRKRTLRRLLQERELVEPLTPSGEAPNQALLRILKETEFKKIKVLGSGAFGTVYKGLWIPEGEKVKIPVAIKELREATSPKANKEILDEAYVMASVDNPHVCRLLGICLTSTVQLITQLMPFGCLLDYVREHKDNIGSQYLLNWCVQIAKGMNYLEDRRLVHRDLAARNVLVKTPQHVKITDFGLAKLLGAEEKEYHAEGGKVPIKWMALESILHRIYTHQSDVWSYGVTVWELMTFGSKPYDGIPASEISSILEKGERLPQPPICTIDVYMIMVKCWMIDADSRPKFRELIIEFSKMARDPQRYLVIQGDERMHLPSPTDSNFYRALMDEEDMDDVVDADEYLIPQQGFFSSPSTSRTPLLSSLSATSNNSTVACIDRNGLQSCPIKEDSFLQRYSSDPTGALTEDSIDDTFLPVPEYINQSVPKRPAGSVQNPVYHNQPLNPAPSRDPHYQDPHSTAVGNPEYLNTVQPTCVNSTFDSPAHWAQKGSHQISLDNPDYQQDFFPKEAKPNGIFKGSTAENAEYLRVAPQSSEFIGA
Test: Inhibitor activity on EGFR-dependent cell growth (CellTiter-Glo, 72 h), Ba/F3 EGFR WT
Conditions: read-out: BaF3 WT IC50
Examples of compounds with documented IC50 follow.

Examples with their reported IC50 follow.
COc1ncc2nccc(-c3[nH]c4c(c3Nc3cccc(Cl)c3F)C(=O)NCC4)c2n1 | 100 to 1000 nM
COc1c(Cl)cccc1Nc1c(-c2ccncc2F)[nH]c2c1C(=O)NCC2 | > 1000 nM
COc1c(F)cccc1Nc1c(-c2ccnc(C)c2)[nH]c2c1C(=O)NCC2 | > 1000 nM

Would you kindly look at the next entry?
Recorded IC50 of COc1ccc2nccc(-c3[nH]c4c(c3Nc3cccc(F)c3OC)C(=O)NCC43CCNCC3)c2n1 , please.
100 to 1000 nM

----------
Biological target: EGFR exon 20 NPG Ins D770_N771 (Ba/F3 cells) (Homo sapiens, UniProt P00533, INS770NPG)
Construct: expressed in transfected cells; host or cells: Ba/F3 (murine pro-B cells), retroviral transduction, puromycin selection, IL3-independent pool
Sequence (P00533 with tags, fused parts or gaps INS770NPG): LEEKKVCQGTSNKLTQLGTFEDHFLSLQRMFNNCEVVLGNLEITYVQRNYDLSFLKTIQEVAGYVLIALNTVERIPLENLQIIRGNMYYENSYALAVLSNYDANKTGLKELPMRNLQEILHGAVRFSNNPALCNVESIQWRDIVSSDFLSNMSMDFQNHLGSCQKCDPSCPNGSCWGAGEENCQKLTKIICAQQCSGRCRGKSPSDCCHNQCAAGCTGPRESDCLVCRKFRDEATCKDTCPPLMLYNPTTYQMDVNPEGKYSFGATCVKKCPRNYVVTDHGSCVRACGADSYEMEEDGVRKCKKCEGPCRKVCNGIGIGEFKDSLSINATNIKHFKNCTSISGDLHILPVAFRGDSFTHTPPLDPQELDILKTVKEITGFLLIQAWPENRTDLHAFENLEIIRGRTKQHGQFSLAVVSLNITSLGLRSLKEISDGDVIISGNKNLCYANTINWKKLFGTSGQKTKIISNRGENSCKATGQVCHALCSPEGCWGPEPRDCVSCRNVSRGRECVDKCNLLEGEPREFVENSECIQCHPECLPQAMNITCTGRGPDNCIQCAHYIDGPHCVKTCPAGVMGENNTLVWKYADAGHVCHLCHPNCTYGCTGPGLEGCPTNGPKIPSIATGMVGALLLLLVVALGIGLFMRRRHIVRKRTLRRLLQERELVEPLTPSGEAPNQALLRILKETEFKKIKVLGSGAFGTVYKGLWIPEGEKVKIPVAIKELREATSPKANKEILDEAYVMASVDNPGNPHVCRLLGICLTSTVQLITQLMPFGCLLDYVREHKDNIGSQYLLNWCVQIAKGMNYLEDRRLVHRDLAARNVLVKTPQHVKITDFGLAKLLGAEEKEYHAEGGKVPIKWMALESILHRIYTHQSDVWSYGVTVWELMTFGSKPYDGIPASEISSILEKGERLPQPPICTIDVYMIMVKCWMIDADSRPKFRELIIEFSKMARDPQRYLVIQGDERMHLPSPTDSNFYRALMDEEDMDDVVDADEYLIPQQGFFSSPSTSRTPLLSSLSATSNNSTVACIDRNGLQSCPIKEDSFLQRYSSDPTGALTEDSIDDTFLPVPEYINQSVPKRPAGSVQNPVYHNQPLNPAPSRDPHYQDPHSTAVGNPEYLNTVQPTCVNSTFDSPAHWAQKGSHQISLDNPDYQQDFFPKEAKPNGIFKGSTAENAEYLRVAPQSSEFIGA
Assay: Inhibitor activity on EGFR-dependent cell growth (CellTiter-Glo, 72 h), Ba/F3 EGFR exon 20 NPG Ins
Assay type: cell-based
Details: read-out: BaF3 NPG IC50
reported.property: IC50

Examples with their reported IC50 follow.
COc1c(F)cccc1Nc1c(-c2ccnc(C)n2)[nH]c2c1C(=O)NCC2C[C@H]1COCCO1 (single isomer, unassigned) [Compound 606] | < 0.1 µM
COc1c(F)cccc1Nc1c(-c2ccnc3c(N)noc23)[nH]c2c1C(=O)NCC2 | < 0.1 µM
COc1c(Cl)cccc1Nc1c(-c2ccncc2F)[nH]c2c1C(=O)NCC2C[C@@H]1CO[C@@H](CN(C)C)CO1 (single isomer, unassigned) [Compound 563] | 0.1 to 1 µM

Identify the measured IC50 of COc1c(Cl)cccc1Nc1c(-c2ccnc(NC(=O)C3CC3)n2)[nH]c2c1C(=O)NCC2 for EGFR exon 20 NPG Ins D770_N771 (Ba/F3 cells) (Homo sapiens, UniProt P00533, INS770NPG).
0.1 to 1 µM

Consider next the molecule COCCOc1ccc2nccc(-c3[nH]c4c(c3Nc3cccc(Cl)c3OC)C(=O)NCC4)c2n1 in the same way.
< 0.1 µM

Consider next the molecule COc1c(F)cccc1Nc1c(-c2ncnc3c2ccn3C)[nH]c2c1C(=O)NCC2 in the same way.
> 1 µM

Consider next the molecule CNc1nccc(-c2[nH]c3c(c2Nc2cccc(F)c2C)C(=O)NCC3)n1 in the same way.
0.1 to 1 µM

Consider next the molecule COc1cc2nccc(-c3[nH]c4c(c3Nc3cccc(Cl)c3OC)C(=O)NCC4)c2nc1OC in the same way.
< 0.1 µM

----------
Molecular target: EGFR exon 20 ASV Ins V769_D770 (Ba/F3 cells) (Homo sapiens, UniProt P00533, INS769ASV)
Construct: expressed in transfected cells; host or cells: Ba/F3 (murine pro-B cells), retroviral transduction, puromycin selection, IL3-independent pool
Sequence (P00533 with tags, fused parts or gaps INS769ASV): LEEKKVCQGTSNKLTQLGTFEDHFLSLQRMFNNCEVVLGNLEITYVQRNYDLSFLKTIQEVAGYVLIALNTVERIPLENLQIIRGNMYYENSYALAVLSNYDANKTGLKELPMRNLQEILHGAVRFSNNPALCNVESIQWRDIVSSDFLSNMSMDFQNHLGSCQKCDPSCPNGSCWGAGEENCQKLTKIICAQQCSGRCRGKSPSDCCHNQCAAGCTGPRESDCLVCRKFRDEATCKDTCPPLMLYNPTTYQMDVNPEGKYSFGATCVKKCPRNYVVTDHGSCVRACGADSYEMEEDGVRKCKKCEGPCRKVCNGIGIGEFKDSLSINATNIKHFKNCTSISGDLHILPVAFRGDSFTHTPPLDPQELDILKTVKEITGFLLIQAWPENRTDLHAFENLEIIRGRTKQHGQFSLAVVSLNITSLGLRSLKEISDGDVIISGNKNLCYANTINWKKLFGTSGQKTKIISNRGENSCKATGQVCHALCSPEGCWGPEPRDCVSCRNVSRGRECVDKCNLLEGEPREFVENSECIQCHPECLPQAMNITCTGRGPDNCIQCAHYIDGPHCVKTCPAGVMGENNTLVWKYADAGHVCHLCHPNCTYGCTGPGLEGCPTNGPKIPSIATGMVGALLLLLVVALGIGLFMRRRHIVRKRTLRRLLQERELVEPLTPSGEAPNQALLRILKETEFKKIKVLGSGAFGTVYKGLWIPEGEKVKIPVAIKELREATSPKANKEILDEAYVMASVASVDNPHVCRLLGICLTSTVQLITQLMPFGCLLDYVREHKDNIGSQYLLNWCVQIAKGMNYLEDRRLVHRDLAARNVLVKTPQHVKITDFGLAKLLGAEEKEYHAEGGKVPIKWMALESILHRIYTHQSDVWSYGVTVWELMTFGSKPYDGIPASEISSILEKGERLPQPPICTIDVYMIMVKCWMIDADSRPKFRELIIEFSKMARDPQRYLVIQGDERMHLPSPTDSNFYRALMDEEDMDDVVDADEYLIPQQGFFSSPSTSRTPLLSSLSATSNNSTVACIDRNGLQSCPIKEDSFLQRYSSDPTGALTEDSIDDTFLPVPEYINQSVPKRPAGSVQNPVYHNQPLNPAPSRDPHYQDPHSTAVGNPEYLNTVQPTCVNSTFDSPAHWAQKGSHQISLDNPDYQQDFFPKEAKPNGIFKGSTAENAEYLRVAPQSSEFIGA
Assay: Inhibitor activity on EGFR-dependent cell growth (CellTiter-Glo, 72 h), Ba/F3 EGFR exon 20 ASV Ins
Format: cell-based
Conditions: read-out: BaF3 ASV IC50
pIC50: −log10 of the molar value.
Examples of compounds with documented pIC50 follow.

Recorded pIC50 of C=CC(=O)N1CCC2(CC1)CNC(=O)c1c2[nH]c(-c2ccncn2)c1Nc1cc(F)cc(F)c1OC , please.
> 7.00

Consider next the compound COc1c(Cl)cccc1Nc1c(-c2ccnc3ccc(OC4COC4)nc23)[nH]c2c1C(=O)NCC21CC1 in the same way.
> 7.00

Consider next the compound COc1cc2nccc(-c3[nH]c4c(c3Nc3cccc(F)c3C)C(=O)NCC4)c2nc1OC in the same way.
> 7.00

Consider next the compound COc1c(Cl)cccc1Nc1c(-c2ccnc(Nc3cnn(C4CCOCC4)c3)n2)[nH]c2c1C(=O)NCC2 in the same way.
> 7.00

Consider next the compound COc1c(Cl)cccc1Nc1c(-c2ccnc(NCC3CC(F)(F)C3)c2)[nH]c2c1C(=O)NCC2 in the same way.
< 6.00

----------
Target: EGFR exon 20 ASV Ins V769_D770 (Ba/F3 cells) (Homo sapiens, UniProt P00533, INS769ASV)
Construct: expressed in transfected cells; host or cells: Ba/F3 (murine pro-B cells), retroviral transduction, puromycin selection, IL3-independent pool
Test: Inhibitor activity on EGFR-dependent cell growth (CellTiter-Glo, 72 h), Ba/F3 EGFR exon 20 ASV Ins
Format: cell-based
Conditions: read-out: BaF3 ASV IC50
Examples of compounds with documented IC50 follow.

Examples with their reported IC50 follow.
Cc1ccc(F)cc1Nc1c(-c2ccnc(N)n2)[nH]c2c1C(=O)NCC2 | > 1000 nM
CNc1cc(-c2[nH]c3c(c2Nc2cccc(Cl)c2OC)C(=O)NCC3)ncn1 | > 1000 nM
COc1c(Cl)cccc1Nc1c(-c2ccncc2F)[nH]c2c1C(=O)NC[C@@]21CCN(S(C)(=O)=O)C1 | 100 to 1000 nM
COc1ncc2nccc(-c3[nH]c4c(c3Nc3cccc(F)c3C)C(=O)NCC4)c2n1 | < 100 nM
COc1c(Cl)cccc1Nc1c(-c2ccnc(N)n2)[nH]c2c1C(=O)NC[C@H]2C[C@@H]1COCCO1 | < 100 nM

Recorded IC50 of COc1c(Cl)cccc1Nc1c(-c2ccnc(N)n2)[nH]c2c1C(=O)NC[C@@H]2C[C@@H]1COCCO1 , please.
< 100 nM

Consider next the compound COc1c(F)cccc1Nc1c(-c2ccnc(-c3cnn(C)c3)c2)[nH]c2c1C(=O)NCC2 in the same way.
> 1000 nM

----------
Target: EGFR WT (Ba/F3 cells) (Homo sapiens)
Assay: Inhibitor activity on EGFR-dependent cell growth (CellTiter-Glo, 72 h), Ba/F3 EGFR WT
Conditions: read-out: BaF3 WT IC50
Examples of compounds with documented IC50 follow.

C=CC(=O)N1CCC2(CC1)CNC(=O)c1c2[nH]c(-c2ccncc2F)c1Nc1cccc(F)c1F [Compound 585] | 100 to 1000 nM
COc1c(Cl)cccc1Nc1c(-c2ccnc3ccc(O[C@@H]4CCOC4)nc23)[nH]c2c1C(=O)NCC2 [compound 743] | 100 to 1000 nM
COc1c(Cl)cccc1Nc1c(-c2ccnc(NC(C)=O)n2)[nH]c2c1C(=O)NCC2 [compound 220] | > 1000 nM
CCn1cc(Nc2nccc(-c3[nH]c4c(c3Nc3cccc(Cl)c3OC)C(=O)NCC4)n2)nn1 [Compound 594] | 100 to 1000 nM
COc1c(Cl)cccc1Nc1c(-c2ccncn2)[nH]c2c1C(=O)NC[C@H]2C[C@@H]1COCCO1 [Compound 568] | 100 to 1000 nM

Recorded IC50 of COc1cc2nccc(-c3[nH]c4c(c3Nc3cccc(F)c3C)C(=O)NCC4)c2nc1OC [Compound 808] , please.
< 100 nM

Consider next the compound COc1c(Cl)cccc1Nc1c(-c2ccncc2F)[nH]c2c1C(=O)NCC2CC1CCO1 (single isomer, unassigned) [Compound 783] in the same way.
> 1000 nM

----------
Target: EGFR exon 20 NPG Ins D770_N771 (Ba/F3 cells) (Homo sapiens, UniProt P00533, INS770NPG)
Construct: expressed in transfected cells; host or cells: Ba/F3 (murine pro-B cells), retroviral transduction, puromycin selection, IL3-independent pool
Test: Inhibitor activity on EGFR-dependent cell growth (CellTiter-Glo, 72 h), Ba/F3 EGFR exon 20 NPG Ins
Assay type: cell-based
Details: read-out: BaF3 NPG IC50
pIC50: −log10 of the molar value.
reported.property: pIC50

Examples with their reported pIC50 follow.
COc1c(F)cccc1Nc1c(-c2ccncn2)[nH]c2c1C(=O)NCC21CCN(C(=O)/C=C/CN(C)C)CC1 [compound 650] | 6.00 to 7.00
COc1c(Cl)cccc1Nc1c(-c2ccnc3ccc(OC4COC4)nc23)[nH]c2c1C(=O)NCC2 [compound 732] | > 7.00
COCC[C@H]1CNC(=O)c2c1[nH]c(-c1ccncc1F)c2Nc1cccc(Cl)c1OC [Compound 747] | > 7.00
COc1c(F)cccc1Nc1c(-c2snc3cccnc23)[nH]c2c1C(=O)NCC2 [Compound 156] | < 6.00

Recorded pIC50 of COc1c(Cl)cccc1Nc1c(-c2ccnc(C)n2)[nH]c2c1C(=O)NC[C@@H]2CC1COCCO1 (stereo in doubt) [Compound 551] , please.
> 7.00

Consider next the compound COc1c(Cl)cccc1Nc1c(-c2ccnc(N)n2)[nH]c2c1C(=O)NC[C@H]2C[C@@H]1COCCO1 [Compound 567] in the same way.
> 7.00

----------
Target: EGFR exon 20 SVD Ins D770_N771 (Ba/F3 cells) (Homo sapiens, UniProt P00533, INS770SVD)
Construct: expressed in transfected cells; host or cells: Ba/F3 (murine pro-B cells), retroviral transduction, puromycin selection, IL3-independent pool
Sequence (P00533 with tags, fused parts or gaps INS770SVD): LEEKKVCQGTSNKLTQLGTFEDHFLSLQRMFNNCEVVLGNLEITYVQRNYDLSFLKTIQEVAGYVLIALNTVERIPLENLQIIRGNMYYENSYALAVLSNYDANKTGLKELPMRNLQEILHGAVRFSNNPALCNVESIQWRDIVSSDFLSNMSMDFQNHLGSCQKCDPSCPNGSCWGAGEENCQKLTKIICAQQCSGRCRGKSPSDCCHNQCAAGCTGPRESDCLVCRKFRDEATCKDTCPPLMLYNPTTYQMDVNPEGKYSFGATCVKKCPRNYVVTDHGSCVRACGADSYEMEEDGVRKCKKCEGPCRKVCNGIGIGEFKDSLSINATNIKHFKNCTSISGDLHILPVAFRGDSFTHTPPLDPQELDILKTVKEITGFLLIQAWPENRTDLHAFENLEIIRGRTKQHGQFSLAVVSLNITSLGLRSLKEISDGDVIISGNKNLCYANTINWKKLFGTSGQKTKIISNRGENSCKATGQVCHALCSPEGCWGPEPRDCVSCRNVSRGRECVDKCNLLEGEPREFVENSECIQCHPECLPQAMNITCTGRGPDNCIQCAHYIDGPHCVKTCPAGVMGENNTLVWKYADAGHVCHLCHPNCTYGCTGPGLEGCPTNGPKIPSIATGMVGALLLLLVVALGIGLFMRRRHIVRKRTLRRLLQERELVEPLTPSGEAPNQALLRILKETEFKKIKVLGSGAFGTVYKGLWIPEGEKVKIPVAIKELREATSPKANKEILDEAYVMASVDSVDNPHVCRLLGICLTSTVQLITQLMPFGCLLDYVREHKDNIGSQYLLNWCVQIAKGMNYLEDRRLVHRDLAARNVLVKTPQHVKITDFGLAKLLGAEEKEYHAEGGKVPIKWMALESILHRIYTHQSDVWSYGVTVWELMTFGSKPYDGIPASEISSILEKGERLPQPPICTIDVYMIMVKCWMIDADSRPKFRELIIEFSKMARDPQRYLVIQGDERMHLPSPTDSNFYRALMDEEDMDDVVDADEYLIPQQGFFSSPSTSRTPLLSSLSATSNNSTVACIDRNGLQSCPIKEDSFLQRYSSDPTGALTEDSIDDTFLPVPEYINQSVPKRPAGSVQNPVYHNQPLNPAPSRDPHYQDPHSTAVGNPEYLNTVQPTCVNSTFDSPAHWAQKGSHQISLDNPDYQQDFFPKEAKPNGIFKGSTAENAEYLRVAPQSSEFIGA
Assay: Inhibitor activity on EGFR-dependent cell growth (CellTiter-Glo, 72 h), Ba/F3 EGFR exon 20 SVD Ins
Assay type: cell-based
Conditions: read-out: BaF3 SVD IC50
Examples of compounds with documented IC50 follow.

Examples with their reported IC50 follow.
C=CC(=O)N1CCC2(CC1)CNC(=O)c1c2[nH]c(-c2ccnc(C)n2)c1Nc1cc(F)cc(F)c1OC [compound 641] | < 100 nM
COc1c(Cl)cccc1Nc1c(-c2ccnc3ccc(OCC(F)F)nc23)[nH]c2c1C(=O)NCC2 [compound 733] | < 100 nM
COc1c(F)cccc1Nc1c(-c2nnc3ccccn23)[nH]c2c1C(=O)NCC2 [compound 239] | > 1000 nM
COc1cnc2c(-c3[nH]c4c(c3Nc3cccc(Cl)c3OC)C(=O)NCC4)ccnc2c1 [compound 814] | < 100 nM
COc1c(Cl)cccc1Nc1c(-c2ccnc3ccc(OCC4CC(F)(F)C4)nc23)[nH]c2c1C(=O)NCC2 [compound 757] | < 100 nM
COCC[C@@H]1CNC(=O)c2c1[nH]c(-c1ccnc(C)n1)c2Nc1cccc(F)c1OC [453a] | 100 to 1000 nM

Identify the measured IC50 of COc1c(Cl)cccc1Nc1c(-c2ccnc(Nc3nnn(C)c3C)n2)[nH]c2c1C(=O)NCC2 [compound 607] for EGFR exon 20 SVD Ins D770_N771 (Ba/F3 cells) (Homo sapiens, UniProt P00533, INS770SVD).
> 1000 nM

Consider next the compound COc1c(Cl)cccc1Nc1c(-c2ccncc2F)[nH]c2c1C(=O)NC[C@@H]2CCN(C)C [compound 475] in the same way.
> 1000 nM
